The measurements presented in this section are drawn from patent US20130029928A1.

# Procedure summary: Phase I study CXR1002-001: plasma pharmacokinetics (LC-MS/MS)
# Type: in vivo, human
# Condition description: human, plasma, oral, 100 mg, Patient 006 Dose 100 mg; 338 hr; read-out: Concentration
# Excerpt: PK samples, PD (fasting) samples, blood glucose, and blood triglyceride samples, were taken over a 6-week period. Dose limiting toxicity (DLT) will be based on the toxicity assessments over the first 3-week period of the repeat dosing schedule. […]
Parameter: concentration at 338 h (µM)

[[record]]
entry_smiles = "O=C(O)C(F)(F)C(F)(F)C(F)(F)C(F)(F)C(F)(F)C(F)(F)C(F)(F)F"
numeric_value = 49.5


====

# Procedure summary: Phase I study CXR1002-001: plasma pharmacokinetics (LC-MS/MS)
# Format: in vivo, human
# Condition description: human, plasma, oral, 600 mg, Patient 020, 600 mg, person, plasma, 172 hr; read-out: Concentration
Parameter: concentration at 172 h (µM)

[[record]]
entry_smiles = "O=C(O)C(F)(F)C(F)(F)C(F)(F)C(F)(F)C(F)(F)C(F)(F)C(F)(F)F"
endpoint_unit = "µM"
numeric_value = 279


====

# Procedure summary: Phase I study CXR1002-001: plasma pharmacokinetics (LC-MS/MS)
# Type: in vivo, human
# Condition description: human, plasma, oral, 50 mg, Patient 003 Dose 50 mg; 0.75 hr
# Description: PK samples, PD (fasting) samples, blood glucose, and blood triglyceride samples, were taken over a 6-week period. Dose limiting toxicity (DLT) will be based on the toxicity assessments over the first 3-week period of the repeat dosing schedule. […]
Parameter: concentration at 0.75 h (µM)

[[record]]
entry_smiles = "O=C(O)C(F)(F)C(F)(F)C(F)(F)C(F)(F)C(F)(F)C(F)(F)C(F)(F)F"
parameter = "concentration at 0.75 h"
endpoint_unit = "µM"
numeric_value = 17.1


====

# Procedure summary: Phase I study CXR1002-001: plasma pharmacokinetics (LC-MS/MS)
# Assay type: in vivo, human
# Condition description: human, plasma, oral, 600 mg, Patient 023, 600 mg, person, plasma, 336 hr (Day 15); read-out: Concentration
Parameter: concentration at 336 h (µM)

[[record]]
entry_smiles = "O=C(O)C(F)(F)C(F)(F)C(F)(F)C(F)(F)C(F)(F)C(F)(F)C(F)(F)F"
parameter = "concentration at 336 h"
numeric_value = 432


====

# Procedure summary: Phase I study CXR1002-001: plasma pharmacokinetics (LC-MS/MS)
# Format: in vivo, human
# Condition description: human, plasma, oral, 750 mg, Patient 028, 750 mg, person, plasma, 336 hr (Day 15); read-out: Concentration
Parameter: concentration at 336 h (µM)

[[record]]
entry_smiles = "O=C(O)C(F)(F)C(F)(F)C(F)(F)C(F)(F)C(F)(F)C(F)(F)C(F)(F)F"
parameter = "concentration at 336 h"
endpoint_unit = "µM"
numeric_value = 288


====

# Procedure summary: Phase I study CXR1002-001: plasma pharmacokinetics (LC-MS/MS)
# Format: in vivo, human
# Condition description: human, plasma, oral, 1000 mg, Patient 040, 1000 mg, person, plasma, 336 hr (Day 15); read-out: Concentration
Parameter: concentration at 336 h (µM)

[[record]]
compound = "O=C(O)C(F)(F)C(F)(F)C(F)(F)C(F)(F)C(F)(F)C(F)(F)C(F)(F)F [CXR1002]"
numeric_value = 305

